- assay.target: T1, human LILRB4 extracellular domain (ECD) recombinant protein (human, UniProt Q8NHJ6 22-259)
- T1 construct: extracellular domain; also called LILRB4 ECD; LILRB4-ECD
- protocol.details: Octet
kon listing for selected binders.
Express the result in M⁻¹ s⁻¹ but write the number alone.

Example entries begin here.
• h193 antibody No. 19 (h193-H3 / h193-K1) (antibody, V domains shown) VH: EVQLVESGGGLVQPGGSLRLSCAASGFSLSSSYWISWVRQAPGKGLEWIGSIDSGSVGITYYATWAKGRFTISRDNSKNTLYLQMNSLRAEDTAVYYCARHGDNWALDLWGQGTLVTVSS VL: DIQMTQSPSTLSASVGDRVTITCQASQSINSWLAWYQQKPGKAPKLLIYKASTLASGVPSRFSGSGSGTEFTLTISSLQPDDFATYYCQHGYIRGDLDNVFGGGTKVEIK = 145000
• h193 antibody No. 31 (h193-H6 / h193-K1) (antibody, V domains shown) VH: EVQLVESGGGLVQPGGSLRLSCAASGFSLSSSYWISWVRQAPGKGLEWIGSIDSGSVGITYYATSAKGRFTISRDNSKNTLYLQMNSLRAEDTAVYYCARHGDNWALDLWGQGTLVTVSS VL: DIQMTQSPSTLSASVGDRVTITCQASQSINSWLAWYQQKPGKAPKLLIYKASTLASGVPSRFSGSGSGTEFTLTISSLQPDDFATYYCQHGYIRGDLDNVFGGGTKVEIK = 144000
• h193 antibody No. 32 (h193-H6 / h193-K2) (antibody, V domains shown) VH: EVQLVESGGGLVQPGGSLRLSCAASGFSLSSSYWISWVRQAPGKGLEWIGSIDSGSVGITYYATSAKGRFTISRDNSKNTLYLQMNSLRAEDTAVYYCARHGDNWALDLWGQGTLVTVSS VL: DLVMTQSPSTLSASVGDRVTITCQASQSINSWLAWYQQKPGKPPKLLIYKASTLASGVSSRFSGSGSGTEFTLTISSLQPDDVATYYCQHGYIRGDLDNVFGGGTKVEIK = 152000
• h193 antibody No. 33 (h193-H6 / h193-K3) (antibody, V domains shown) VH: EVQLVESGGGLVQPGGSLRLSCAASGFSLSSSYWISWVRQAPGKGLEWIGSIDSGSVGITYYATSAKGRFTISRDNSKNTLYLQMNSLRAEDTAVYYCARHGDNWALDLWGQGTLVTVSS VL: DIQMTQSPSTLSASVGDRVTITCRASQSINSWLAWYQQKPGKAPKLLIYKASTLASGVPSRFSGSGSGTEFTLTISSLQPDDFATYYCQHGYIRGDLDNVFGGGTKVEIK = 148000
• h193 antibody No. 35 (h193-H7 / h193-K1) (antibody, V domains shown) VH: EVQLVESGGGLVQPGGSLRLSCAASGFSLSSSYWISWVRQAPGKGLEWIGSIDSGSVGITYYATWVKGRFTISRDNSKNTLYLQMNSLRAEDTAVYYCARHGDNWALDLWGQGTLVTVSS VL: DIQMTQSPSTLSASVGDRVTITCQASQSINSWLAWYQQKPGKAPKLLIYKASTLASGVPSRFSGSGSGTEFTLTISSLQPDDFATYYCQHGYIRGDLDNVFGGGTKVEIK = 141000

Query (binder): h193 antibody No. 24 (h193-H4 / h193-K2) (antibody, V domains shown) VH: EVQLVESGGGLVQPGGSLRLSCAASGFSLSSSYWISWVRQAPGKGLEWVSSIDSGSVGITYYATWAKGRFTISRDNSKNTLYLQMNSLRAEDTAVYYCARHGDNWALDLWGQGTLVTVSS VL: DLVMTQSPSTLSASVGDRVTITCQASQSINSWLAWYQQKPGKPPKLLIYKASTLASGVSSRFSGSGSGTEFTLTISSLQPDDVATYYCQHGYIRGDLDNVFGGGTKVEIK ; field requested: kon
135000

Give the measured kon of h193 antibody No. 36 (h193-H7 / h193-K2) (antibody, V domains shown) VH: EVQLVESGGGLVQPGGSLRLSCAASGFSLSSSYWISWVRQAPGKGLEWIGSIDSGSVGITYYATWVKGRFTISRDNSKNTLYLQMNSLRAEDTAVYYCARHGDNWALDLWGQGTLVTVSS VL: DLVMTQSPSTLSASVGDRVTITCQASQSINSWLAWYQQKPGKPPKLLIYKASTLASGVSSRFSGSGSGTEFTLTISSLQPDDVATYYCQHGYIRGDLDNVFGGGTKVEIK .
143000

Give its kon value. Item: h193 antibody No. 20 (h193-H3 / h193-K2) (antibody, V domains shown) VH: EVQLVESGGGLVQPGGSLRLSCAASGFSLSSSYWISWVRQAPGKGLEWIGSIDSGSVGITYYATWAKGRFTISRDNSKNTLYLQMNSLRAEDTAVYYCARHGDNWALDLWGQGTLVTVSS VL: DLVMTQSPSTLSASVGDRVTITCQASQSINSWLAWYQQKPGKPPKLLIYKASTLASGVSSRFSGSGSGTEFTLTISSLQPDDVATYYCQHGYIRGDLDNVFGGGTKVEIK
150000

Quick check: kon of h193 antibody No. 37 (h193-H7 / h193-K3) (antibody, V domains shown) VH: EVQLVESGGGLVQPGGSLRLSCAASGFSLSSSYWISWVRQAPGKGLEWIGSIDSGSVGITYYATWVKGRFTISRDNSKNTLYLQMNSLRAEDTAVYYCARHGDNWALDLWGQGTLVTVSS VL: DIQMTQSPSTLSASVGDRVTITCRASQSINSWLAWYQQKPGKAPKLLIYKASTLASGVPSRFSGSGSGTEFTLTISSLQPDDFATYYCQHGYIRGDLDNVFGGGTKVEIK ?
143000

Query (binder): h193 antibody No. 23 (h193-H4 / h193-K1) (antibody, V domains shown) VH: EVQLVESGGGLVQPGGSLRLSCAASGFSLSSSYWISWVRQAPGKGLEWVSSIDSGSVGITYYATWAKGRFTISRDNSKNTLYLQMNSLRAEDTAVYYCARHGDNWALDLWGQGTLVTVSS VL: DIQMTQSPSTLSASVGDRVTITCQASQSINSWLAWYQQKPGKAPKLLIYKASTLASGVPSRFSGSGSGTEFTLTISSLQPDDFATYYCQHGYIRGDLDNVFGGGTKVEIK ; field requested: kon
125000
